// data source = BigSolDB 2.1

Reported values of solubility (mole fraction) for individual entries
conditions: in methylcyclohexane, 298.15 K
measuredProperty: solubility (mole fraction)

{"smilesString": "c1ccc2cc3ccccc3cc2c1", "resultNumber": 0.00165}
{"smilesString": "O=C(C(=O)c1ccccc1)c1ccccc1", "resultNumber": 0.0113}

---

conditions: in transcutol, 298.2 K

{"molecule": "CC(=O)N1CCN(c2ccc(OC[C@@H]3CO[C@@](Cn4ccnc4)(c4ccc(Cl)cc4Cl)O3)cc2)CC1 (racemic)", "solubility (mole fraction)": 0.0136}
{"molecule": "O=C1NC(=O)C(c2ccccc2)(c2ccccc2)N1", "solubility (mole fraction)": 0.00133}
